ASSAY_TARGET: MBP-FoxP3dN (Mus musculus, UniProt Q99JB6 188-423)
Sequence: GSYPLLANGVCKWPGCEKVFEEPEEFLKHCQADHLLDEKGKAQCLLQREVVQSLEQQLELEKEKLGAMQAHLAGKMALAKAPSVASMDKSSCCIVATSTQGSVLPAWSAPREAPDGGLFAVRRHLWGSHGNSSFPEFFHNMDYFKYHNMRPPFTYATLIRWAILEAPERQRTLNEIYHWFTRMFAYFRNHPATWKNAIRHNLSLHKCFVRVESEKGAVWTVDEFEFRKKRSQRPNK
PROTOCOL_TEXT: PD-seq (MBP pull-down with sequencing); 20 mM Tris-HCl pH 7.5, 100 mM NaCl, 1.5 mM MgCl2, 0.4 uM protein, 0.1 uM dsDNA library, 30 min, room temperature, amylose pull-down; high values mean tight binding
EXPERIMENTAL_CONDITIONS: protein: recombinant; tags: His6-MBP; chain copies: 2; dsDNA, one strand shown
Over roughly 16,000 sequences, “rpm ratio (pull-down/input)” has its median near 0.5; the highest 2% begin near 5.5. The sample holds the highest values, similar sequences and a random draw of the others, so the mix is not that of the screen.
# binding signal values compiled below

| SEQUENCE_CHAIN | binding signal |
| --- | --- |
| GATGATTGTTCTCCCAGCTGATGAATTATGAATCTCGAGTAAACAAATTTTCCTAATCTTTCTGTTCAAGCGCCATCTAC | 2.3 RPM ratio (pull-down/input) |
| GATGATTGTTCTCCCAGCTGATGAATTCGGCACTTCGAGTAAACAAATTTTCCTAATCTTTCTGTTCAAGCGCCATCTAC | 0.811 RPM ratio (pull-down/input) |
| GATGATTGTTCTCCCAGCTGATGAATTATGCAAATCGAGTAAACAAATTTTCCTAATCTTTCTGTTCAAGCGCCATCTAC | 1.16 RPM ratio (pull-down/input) |
| GATGATTGTTCTCCCAGCTGATGAATTTGATTGGTCGAGTAAACAAATTTTCCTAATCTTTCTGTTCAAGCGCCATCTAC | 5.03 RPM ratio (pull-down/input) |
